Field: pIC50. Provide a value for each of the molecules that follow.
Target: bakterielle Dihydrofolsäurereduktase (DHFR) (Escherichia coli, UniProt P0ABQ4)
Procedure Text: 50% inhibition of bacterial dihydrofolate reductase
Type: biochemical, E. coli
Test Settings: DHFR of E. coli; read-out: 50% Hemmung der DHFR (M x 10^-8) E. coli
Entry type: numeric. Quantity: pIC50, the -log10 of concentration in molar units.

Please fill in: pIC50 reported for `COc1c(Br)cc(Cc2cnc(N)nc2N)cc1SC` = 7.96

pIC50 recorded for this molecule, `CSc1ccc(Cc2cnc(N)nc2N)cc1SC` , is 7.80

// pIC50 lookup, molecule = `COc1c(SC)cc(Cc2cnc(N)nc2N)cc1SC` , result: 8.14
